# Tested on: NCI-H226
# protocol: NCI tumour cell line growth inhibition, 48 h
Calls of active or inactive are those of the source. Cut-off read from the data, not from the text of the source: active = GI50 up to about 1.1 µM and inactive = higher.
Examples of compounds with documented GI50 follow.

Example cases with answers are listed next.
> print(dat)
                                   compound  measured.target  quantity              reading
1  CC1(OCc2ccccc2)C(=O)N2C1NCC2(C)C (stereo not given)         NCI-H226      GI50  > 100 µM (inactive)
2  COc1ccc(C2c3cc4c(cc3OC(N3CCOCC3)C2C)OCO4)c(OC)c1 (stereo not given)         NCI-H226      GI50   3.72 µM (inactive)
3  CC1(CNCc2ccccc2)CC(CCc2ccccc2)N(C(=O)c2ccc([N+](=O)[O-])cc2)C1Cc1ccc(O)cc1 (stereo not given)         NCI-H226      GI50   9.93 µM (inactive)

Request: // GI50 lookup, key: CCN1C(=O)c2ccccc2C1(O)c1ccc(Cl)cc1 (stereo not given)
Result: 16.8 µM (inactive)

Request: So what's the measured GI50 for this one? C=C(Cl)C(Cl)(CBr)CCCC(C)(C)Cl (stereo not given)
Result: > 72.9 µM (inactive)

* * *

# System: BT-549
# protocol: NCI tumour cell line growth inhibition, 48 h
Active and inactive are the calls of the source. Rule as the data show it: active = GI50 up to about 1.1 µM and inactive = higher.
Could you please pick one outcome from this set? class 1 for active, class 0 for inactive

Request: Write down the call the test reported for this molecule. Item: `COC(=O)CCC1=NCC(C)(C)O1`
Result: class 0

Request: Please let me know the test result on file for `COc1cccc2nc3c(C(=O)NCCN(C)C)cccc3cc12` .
Result: class 0

Request: Field: outcome | Entry: `CCOC(=O)c1c(-c2ccccc2)oc(=O)c(Cc2cccc3cccnc23)c1-c1ccccc1`
Result: class 0

* * *

# Test system: COLO 205
# protocol: NCI tumour cell line growth inhibition, 48 h
Calls of active or inactive are those of the source. Rule as the data show it: active = GI50 up to about 1.1 µM and inactive = higher.
Response enum: active, inactive

Below are worked cases with known answers.
compound	assigned class
COC(=O)[C@H](Cc1ccccc1)NC(=O)CCCCCCC(=O)NO	inactive
CC1=CC(=O)c2ccc3c4ccccc4n(C)c3c2C1=O	inactive
Nc1ncnc2c1ncn2[C@@H]1C[C@H](NO)[C@@H](O)[C@H]1O	inactive
C/C(=N/O)c1ccc2c(c1)/C(=N/O)c1cc(/C(C)=N/O)ccc1-2	inactive

Request: Just curious, what result did O=C(CN1C(=O)c2ccccc2C1=O)OC1C=CCCC1 (configuration not stated) get here?
Result: inactive

* * *

# Test system: SF-295
# protocol: NCI tumour cell line growth inhibition, 48 h
The source made the active and inactive calls. No stated cut-off is given here; in the data, active = GI50 up to about 1.1 µM and inactive = higher.
compounds and their reported GI50

> print(dat)
                               compound              reading
1  CSC1=N/C(=C\c2cccs2)C(=O)N1CN1CCOCC1  > 100 µM (inactive)

Request: Requested read-out: GI50. Entry: `CCCCC1=C(C(=O)N2CCOCC2)C2(OCCO2)C1=O`
Result: 32.5 µM (inactive)

Request: May I ask what GI50 has been recorded for O=C(CC1S/C(=N\c2ccccc2Cl)NC1=O)Nc1ccc(Cl)cc1 (stereo unspecified) ?
Result: > 100 µM (inactive)

Request: Item under review: CC(OP(=O)(O)O)C(N)C(=O)O (stereo unspecified) . Reported GI50?
Result: > 100 µM (inactive)

Request: What does the record list as GI50 for COC(=O)[C@@H]1CCCCC[C@H]2C(CO)=C(C)C(=O)C12 (stereo partly specified) ?
Result: > 100 µM (inactive)

Request: Tell me the measured GI50 of `COC(=O)[C@@H]1CSC(=S)N1C(=O)C[C@H]1CC=CC[C@H]1CC(=O)Sc1ccccc1` , please.
Result: 22 µM (inactive)

Request: Requested read-out: GI50. Entry: `C[C@]1(O)O[C@@H]2OCC[C@@H]2C2=C1C(=O)c1ccccc1C2=O`
Result: 18.7 µM (inactive)

Request: Quick one: GI50 of `C1=CC2(C=CC13O[C@H](C1CCCCC1)[C@@H](C1CCCCC1)O3)O[C@H](C1CCCCC1)[C@@H](C1CCCCC1)O2` ?
Result: > 50 µM (inactive)

Request: Give the measured GI50 of `Cn1c2ccccc2c2ccc3c(c21)C(=O)c1ccc2c4ccccc4n(C)c2c1C3=O` .
Result: > 100 µM (inactive)

Request: I would be grateful if you could share the reported GI50 for `C/C(CN1C(=O)c2ccccc2C1=O)=N\NS(=O)(=O)c1cccc(C(=O)O)c1` .
Result: > 100 µM (inactive)

Request: Consider the compound shown here: O=c1[nH]cc(COCC(O)CO)c(=O)[nH]1 (stereo unspecified) What is its recorded GI50?
Result: > 100 µM (inactive)
